Listing of recorded kon by entry.
target: T1, recombinant human VEGF165 (human, UniProt P15692 27-191); assay: Biacore SPR, VEGF immobilized, pH 7.4
T1 construct: mature; Isoform VEGF165 of the entry; also called hVEGF165; hVEGF
T1 sequence (P15692 other isoform, or with tags, fused parts or gaps): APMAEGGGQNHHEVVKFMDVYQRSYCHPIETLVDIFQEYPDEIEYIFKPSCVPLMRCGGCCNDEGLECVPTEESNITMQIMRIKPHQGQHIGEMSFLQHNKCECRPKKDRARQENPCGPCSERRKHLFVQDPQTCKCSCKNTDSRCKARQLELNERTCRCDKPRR

Binder: 578-max (scFv, also called EP578max; #821) scFv: EIVMTQSPSTLSASVGDRVIITCQASEIIHSWLAWYQQKPGKAPKLLIYLASTLASGVPSRFSGSGSGTQFTLTISSLQPDDFATYYCQNVYLASTNGANFGQGTKLTVLGGGGGSGGGGSGGGGSGGGGSEVQLVESGGGLVQPGGSLRLSCTASGFSLTDYYYMTWVRQAPGKGLEWVGFIDPDDDPYYATWAKGRFTISRDTSKNTVYLQMNSLRAEDTAVYYCAGGDHNSGWGLDIWGQGTLVTVSS
Rel: =
kon (M⁻¹ s⁻¹): 1.58e+06

Binder: 578-min (scFv, also called EP578 min; Protein Nr; 820) scFv: EIVMTQSPSTLSASVGDRVIITCQASEIIHSWLAWYQQKPGKAPKLLIYLASTLASGVPSRFSGSGSGAEFTLTISSLQPDDFATYYCQNVYLASTNGANFGQGTKLTVLGGGGGSGGGGSGGGGSGGGGSEVQLVESGGGLVQPGGSLRLSCAASGFSLTDYYYMTWVRQAPGKGLEWVSFIDPDDDPYYATWAKGRFTISRDNSKNTLYLQMNSLRAEDTAVYYCAKGDHNSGWGLDIWGQGTLVTVSS
Rel: =
kon (M⁻¹ s⁻¹): 1.11e+06

Binder: 509-maxII (scFv, VH tied by name; also called Protein Nr) scFv: EIVMTQSPSTLSASVGDRVIITCQASQNIRIWLSWYQQKPGKAPKLLIYKASTLESGVPSRFSGSGSGTEFTLTISSLQPDDFATYYCQNNAHYSTNGGTFGQGTKLTVLGGGGGSGGGGSGGGGSGGGGSEVQLVESGGGLVQPGGSLRLSCTASGFSLSSYYMSWVRQAPGKGLEWVGILDYVGDTDYASWAKGRFTISKDASKNTVYLQMNSLRAEDTAVYYCARTDDSRGWGLNIWGQGTLVTVSS
Rel: =
kon (M⁻¹ s⁻¹): 7.59e+06

Binder: 511-max (scFv, also called ESBA802) scFv: EIVMTQSPSTLSASVGDRVIITCQASQSINIWLSWYQQKPGKAPKLLIYRASTLASGVPSRFSGSGSGTEFTLTISSLQPDDFATYYCQANYAYSAGYGAAFGQGTKLTVLGGGGGSGGGGSGGGGSGGGGSEVQLVESGGGLVQPGGSLRLSCTVSGFSLNTYYMNWVRQAPGKGLEWVGIIAPDDTTYYASWAKSRSTISRDTSKNTVYLQMNSLRAEDTAVYYCARSGDTTAWGADIWGQGTLVTVSS
Rel: =
kon (M⁻¹ s⁻¹): 800000

Binder: 534-max (scFv, VL and VH tied by name; also called EP534max; Protein Nr; 793) scFv: EIVMTQSPSTLSASVGDRVIITCQASQSINIWLSWYQQKPGKAPKLLIYKESTLASGVPSRFSGSGSGTEFTLTISSLQPDDFATYYCQNNYDSGNNGFPFGQGTKLTVLGGGGGSGGGGSGGGGSGGGGSEVQLVESGGGLVQPGGSLRLSCTASGFSLSYYYMSWVRQAPGKGLEWVGIIGPGDYTDYASWAKGRFTISKDTSKNTVYLQMNSLRAEDTAVYYCARGDDNSGWGEDIWGQGTLVTVSS
Rel: =
kon (M⁻¹ s⁻¹): 1.06e+06

Binder: 567-min (scFv, also called Protein Nr; 884) scFv: EIVMTQSPSTLSASVGDRVIITCQADQSIYIWLSWYQQKPGKAPKLLIYKASTLESGVPSRFSGSGSGAEFTLTISSLQPDDFATYYCQNNAHYSTNGGTFGQGTKLTVLGGGGGSGGGGSGGGGSGGGGSEVQLVESGGGLVQPGGSLRLSCAASGFSLSDYYMCWVRQAPGKGLEWVSCLDYFGSTDDASWAKGRFTISRDNSKNTLYLQMNSLRAEDTAVYYCAKTDDSRGWGLNIWGQGTLVTVSS
Rel: =
kon (M⁻¹ s⁻¹): 1.11e+06

Binder: 509-min (scFv, VL and VH tied by name; also called Protein Nr; 854) scFv: EIVMTQSPSTLSASVGDRVIITCQASQNIRIWLSWYQQKPGKAPKLLIYKASTLESGVPSRFSGSGSGAEFTLTISSLQPDDFATYYCQNNAHYSTNGGTFGQGTKLTVLGGGGGSGGGGSGGGGSGGGGSEVQLVESGGGLVQPGGSLRLSCAASGFSLSSYYMCWVRQAPGKGLEWVSCLDYVGDTDYASWAKGRFTISRDNSKNTLYLQMNSLRAEDTAVYYCAKTDDSRGWGLNIWGQGTLVTVSS
Rel: =
kon (M⁻¹ s⁻¹): 3.52e+06

Binder: 375-min (scFv, VL and VH tied by name; also called Protein Nr; 857) scFv: EIVMTQSPSTLSASVGDRVIITCQASENINIWLSWYQQKPGKAPKLLIYQASKLASGVPSRFSGSGSGAEFTLTISSLQPDDFATYYCQNNYSYNRYGAPFGQGTKLTVLGGGGGSGGGGSGGGGSGGGGSEVQLVESGGGLVQPGGSLRLSCAASGFSFTTTDYMCWVRQAPGKGLEWVSCILAGDGSTYYANWAKGRFTISRDNSKNTLYLQMNSLRAEDTAVYYCAKSDPASSWSFALWGQGTLVTVSS
Rel: >
kon (M⁻¹ s⁻¹): 1e+08

Binder: 511-min (scFv, VL and VH tied by name; also called Protein Nr) scFv: EIVMTQSPSTLSASVGDRVIITCQASQSINIWCSWYQQKPGKAPKLLIYRASTLASGVPSRFSGSGSGAEFTLTISSLQPDDFATYYCQANYAYSAGYGAAFGQGTKLTVLGGGGGSGGGGSGGGGSGGGGSEVQLVESGGGLVQPGGSLRLSCAASGFSLNTYYMNWVRQAPGKGLEWVSIIAPDDTTYYASWAKSRFTISRDNSKNTLYLQMNSLRAEDTAVYYCAKSGDTTAWGADIWGQGTLVTVSS
Rel: =
kon (M⁻¹ s⁻¹): 675000

// data source = patent US20150274820A1
